FYI, the data here is from ChEMBL document CHEMBL3988442.

Test system: Trypanosoma cruzi
Experiment: Trypanosoma cruzi phosphomannomutase and mannose-1-phosphate guanylyltransferase assay
Format: functional
Set-up: scale not given: direction of the effect not stated beside the values
Conditions: 10 µM
value-type: Percent Effect (%)
API: value field is a number in %; no unit string.

Cc1cc(C)n(C2CCCN(C(=O)COCC(F)(F)F)C2)n1 (configuration not stated): 0.657
CN(C)S(=O)(=O)c1ccc(CN2CCCC2c2ccc[nH]2)o1 (configuration not stated): -2.52
Cc1nnc(NC(=O)NC2CCOc3ccccc32)s1 (configuration not stated): 1.59
O=C(NCCc1ccn(-c2ccccc2)n1)N1CCC1: 1.67
CSc1ccccc1CN1CCCn2nc(CNC(=O)N(C)C)cc2C1: 3.13

# assay system Trypanosoma cruzi: give Percent Effect of Cc1csc(CN2CC[C@H]3C[C@H](c4nnc(C)[nH]4)O[C@@H]3C2)n1
-0.397

# assay system Trypanosoma cruzi: give Percent Effect of CCC(=O)N1CCC2(COCc3c(C)nc(N(C)C)nc32)C1 (configuration not stated)
-0.586

# assay system Trypanosoma cruzi: give Percent Effect of O=C(NC(Cc1ccsc1)c1nccs1)C1CCOCC1 (configuration not stated)
-4.74

# assay system Trypanosoma cruzi: give Percent Effect of CC(C)(C)NC(=O)C1CSCN1S(=O)(=O)c1ccc(F)cc1 (configuration not stated)
-4

# assay system Trypanosoma cruzi: give Percent Effect of COc1ncccc1NC(=O)NCC1CCS(=O)(=O)C1 (configuration not stated)
-0.936

# assay system Trypanosoma cruzi: give Percent Effect of COc1ccc(CNCc2c(C)nn(C)c2N2CCOCC2)cc1
3.82

# assay system Trypanosoma cruzi: give Percent Effect of Cn1cnc2c1CCN(Cc1csc(-c3ccsc3)n1)C2
-1.41

###

Target: AMP-activated protein kinase, AMPK (Homo sapiens) (UniProt P54646+O43741+P54619+Q9UGJ0+Q9Y478+Q13131+Q9UGI9)
Experiment: AMP-dependent Kinase enzyme assay. An in vitro enzyme assay that detects ADP turnover that is directly proportional to AMPK activity. This uses naive AMPK that is activated during the assay with MK-8722
Assay type: functional
Design: scale not given: direction of the effect not stated beside the values
Conditions: 30 µM
Item-by-item account of Percent Effect
API: value field is a number in %; no unit string.

CCCN1CC(C(=O)Nc2ccccn2)CC1=O (configuration not stated): -0.466
Cc1cccc(CN2C[C@@H]3COC[C@]3(COc3ccc(C#N)cn3)C2)n1: -1.47
COc1cc(CNCc2c(C(C)C)nn(C)c2N(C)C)ccn1: -8.02
CN(C)C(CNC(=O)NCCc1cccc(O)c1)c1ccco1 (configuration not stated): 0.167
CNc1cc(C)nc(C2CN(Cc3ccc(C)nc3)CCO2)c1 (configuration not stated): 9.63

Give the reported Percent Effect for this compound. CCOCC1CN(C)Cc2cnn(CC3CCCC3)c21 (configuration not stated)
0.312

Give the reported Percent Effect for this compound. Cc1ccc(F)c(-n2nnc(C(=O)O)c2-c2ccncc2)c1
2.72

Give the reported Percent Effect for this compound. Cc1ccc(CC(=O)N2Cc3nccn3CC(Cn3cccn3)C2)cc1 (configuration not stated)
-7.73

Give the reported Percent Effect for this compound. Cc1cc(C)n(CC2CCCN2C(=O)c2ccc(C(N)=O)cn2)n1 (configuration not stated)
1.06

Give the reported Percent Effect for this compound. c1csc(-c2nc(CN3CCOC(Cn4cccn4)C3)co2)c1 (configuration not stated)
-12.4

Give the reported Percent Effect for this compound. Cc1nnc(CN2CCN(CCOc3ccccc3C#N)CC2)n1C
-7.44

Give the reported Percent Effect for this compound. CC(C)c1n[nH]c(C2CN(C(=O)CCCn3cccn3)CCO2)n1 (configuration not stated)
-4.76

###

Test system: Trypanosoma cruzi
Assay: Trypanosoma cruzi phosphomannomutase and mannose-1-phosphate guanylyltransferase assay
Format: functional
Design: scale not given: direction of the effect not stated beside the values
Conditions: 10 µM
value-type: Percent Effect (%)
API: value field is a number in %; no unit string.

# count of solved cases: 5
Cc1[nH]ccc1C(=O)N1CCCC(c2nccn2Cc2cscn2)C1 (centres undefined): 9.99
NCC(=O)N1CCCC(c2cncc(Nc3ncccn3)n2)C1 (centres undefined): -2.57
CN(C)C(C(=O)N1CCCC1)c1ccccc1F (centres undefined): -5.54
Cc1nc(C)n(CC2CCCCN2CC(=O)NC2CCOCC2)n1 (centres undefined): 6.37
CCc1nc(CN2CCCN(C(=O)c3c(C)noc3C)CC2)cs1: 0.0939

# assay system Trypanosoma cruzi: give Percent Effect of CC1CCCCN1C(=O)CN1CCN(c2ccc3nncn3n2)CC1 (centres undefined)
7.42

# assay system Trypanosoma cruzi: give Percent Effect of COCCC(=O)N1C[C@H]2CN(Cc3cccc(C)n3)C(=O)[C@H]2C1
-0.563

# assay system Trypanosoma cruzi: give Percent Effect of O=C(Cc1noc2ccccc12)N1CCCC1c1noc(C2CC2)n1 (centres undefined)
-4.62

# assay system Trypanosoma cruzi: give Percent Effect of CCc1nc(C2CCCN2C(=O)CCc2cccs2)no1 (centres undefined)
-3.81

# assay system Trypanosoma cruzi: give Percent Effect of c1cnn(CCNCc2csc(-c3ccsc3)n2)c1
-5.92

###

Target: Ubiquitin-activating enzyme e1, putative (Leishmania donovani (strain BPK282A1)) (UniProt E9BSI1)
Sequence (E9BSI1 as listed by the source): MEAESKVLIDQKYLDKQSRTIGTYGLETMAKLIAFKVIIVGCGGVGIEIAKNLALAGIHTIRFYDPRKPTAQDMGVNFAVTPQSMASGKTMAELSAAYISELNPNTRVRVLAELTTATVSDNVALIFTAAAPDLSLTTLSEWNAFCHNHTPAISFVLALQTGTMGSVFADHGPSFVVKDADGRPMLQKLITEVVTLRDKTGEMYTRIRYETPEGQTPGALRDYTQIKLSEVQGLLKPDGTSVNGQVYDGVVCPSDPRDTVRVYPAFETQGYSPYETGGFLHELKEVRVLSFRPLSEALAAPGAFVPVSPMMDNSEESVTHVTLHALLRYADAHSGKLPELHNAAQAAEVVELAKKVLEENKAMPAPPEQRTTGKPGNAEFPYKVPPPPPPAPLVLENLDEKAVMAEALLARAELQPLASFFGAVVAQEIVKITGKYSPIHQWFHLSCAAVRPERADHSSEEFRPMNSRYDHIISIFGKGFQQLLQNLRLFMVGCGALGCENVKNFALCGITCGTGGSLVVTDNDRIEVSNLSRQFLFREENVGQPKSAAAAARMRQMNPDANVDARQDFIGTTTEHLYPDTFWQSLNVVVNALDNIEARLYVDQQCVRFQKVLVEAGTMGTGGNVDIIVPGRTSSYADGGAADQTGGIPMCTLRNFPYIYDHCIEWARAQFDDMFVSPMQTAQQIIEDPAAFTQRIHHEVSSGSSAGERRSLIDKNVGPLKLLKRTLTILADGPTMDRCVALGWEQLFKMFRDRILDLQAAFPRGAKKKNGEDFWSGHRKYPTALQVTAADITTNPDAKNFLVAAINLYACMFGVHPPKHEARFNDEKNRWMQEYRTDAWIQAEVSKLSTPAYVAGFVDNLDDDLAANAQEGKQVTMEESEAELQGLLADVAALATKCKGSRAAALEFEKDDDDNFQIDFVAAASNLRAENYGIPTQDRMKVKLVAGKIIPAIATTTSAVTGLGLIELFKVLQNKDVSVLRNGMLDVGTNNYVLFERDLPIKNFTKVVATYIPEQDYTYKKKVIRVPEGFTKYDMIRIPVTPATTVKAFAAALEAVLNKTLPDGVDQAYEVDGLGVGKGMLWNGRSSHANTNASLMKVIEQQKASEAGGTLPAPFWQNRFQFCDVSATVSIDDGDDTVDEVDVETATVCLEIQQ
Assay: Leishmania donovani Ubiquitin Activating Enzyme (LdE1)
Type: functional
Parameters: scale not given: direction of the effect not stated beside the values
Settings: 30 µM
Entries with a potency or affinity are not part of this list.
value-type: Percent Effect (%)
API: value field is a number in %; no unit string.

Cc1nc(N2CCN(C(=O)C3CC3)CC2)c2c(n1)c(C)nn2C: 6.67
COCCC(=O)N1C[C@H]2CN(Cc3cccc(C)n3)C(=O)[C@H]2C1: 3.9
CC(C)NC(=O)N1C[C@H]2C[C@H](C(=O)NCc3ccccc3)[C@@H](C1)O2: -103
CC(C)(C#N)C(=O)N1CCCC(c2cc(C(F)(F)F)[nH]n2)C1 (stereo not given): 16.2

As a next step, examine the compound that follows.
Give the reported Percent Effect for this compound. CC(C)Cc1noc(CN2CCN(C(=O)c3ccco3)CC2)n1
2.74

###

Target: Protein translocase subunit SecA (Escherichia coli (strain K12))
Assay: Assay to Identify E. coli SecA ATPase Inhibitors
Assay type: functional
Set-up: scale not given: direction of the effect not stated beside the values
Conditions: 30 µM
Measured potencies and affinities stand elsewhere.
value-type: Percent Effect (%)
API: value field is a number in %; no unit string.

# count of solved cases: 5
CCn1nc(C)c2nnn(CC(=O)Nc3c(C)cccc3C)c(=O)c21: -7.15
FC(F)(F)Cc1noc(CN2CCCC2c2noc(C3CC3)n2)n1 (stereo not drawn): -1.65
Cc1cc(NC(=O)NCc2cccnc2OC(C)C)n(C)n1: -2.88
COc1ccc(OCCNCCn2cccn2)cc1: 1.21
c1cn2c(n1)CN(CC1CC1)CC(CN1CCOCC1)C2 (stereo not drawn): -6.5

Give the reported Percent Effect for this compound. COCC(O)CNC(=O)c1cnc(-c2ccccc2)nc1O (stereo not drawn)
2.38

Give the reported Percent Effect for this compound. Cc1cc(C(=O)NCc2ccc(N3CCCC(C(N)=O)C3)cc2)[nH]n1 (stereo not drawn)
-7.13

Give the reported Percent Effect for this compound. CCn1nc2c(cc1=O)CN(CC(=O)Nc1nc(C)c(C)s1)CC2
-0.874

###

Target: Tyrosyl-tRNA synthetase, putative (Trypanosoma cruzi (strain CL Brener)) (UniProt Q4DSP6)
Sequence (Q4DSP6 as listed by the source): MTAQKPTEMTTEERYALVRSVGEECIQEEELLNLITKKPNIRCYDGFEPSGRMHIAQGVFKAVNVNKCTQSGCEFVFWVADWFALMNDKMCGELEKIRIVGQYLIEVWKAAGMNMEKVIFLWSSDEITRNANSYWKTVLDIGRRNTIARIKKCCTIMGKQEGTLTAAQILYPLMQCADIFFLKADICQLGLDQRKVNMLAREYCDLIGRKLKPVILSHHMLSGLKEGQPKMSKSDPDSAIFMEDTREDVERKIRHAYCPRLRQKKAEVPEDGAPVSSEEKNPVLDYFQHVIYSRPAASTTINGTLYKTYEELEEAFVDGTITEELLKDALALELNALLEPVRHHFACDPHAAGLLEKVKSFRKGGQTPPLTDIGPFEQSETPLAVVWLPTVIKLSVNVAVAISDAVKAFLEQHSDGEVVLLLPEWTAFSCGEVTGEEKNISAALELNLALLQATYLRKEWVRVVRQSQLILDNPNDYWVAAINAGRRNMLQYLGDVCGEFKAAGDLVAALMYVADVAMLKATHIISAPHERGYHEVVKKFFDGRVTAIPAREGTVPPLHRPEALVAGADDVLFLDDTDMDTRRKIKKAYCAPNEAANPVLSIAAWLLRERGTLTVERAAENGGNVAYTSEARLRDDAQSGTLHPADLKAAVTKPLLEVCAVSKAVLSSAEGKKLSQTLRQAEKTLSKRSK
Assay: Trypanosoma cruzi tyrosyl tRNA synthetase (TcYRS) SOP
Assay type: functional
Parameters: scale not given: direction of the effect not stated beside the values
Conditions: 30 µM
value-type: Percent Effect

# count of solved cases: 3
CN1CCCC2(CCN(C(=O)CCn3cncn3)C2)C1=O (configuration not stated): 19.5%
COc1cccc2c1OCC(C(=O)N(C)CCCc1cnn(C)c1)C2 (configuration not stated): 7.5%
CN(Cc1noc(C2CC2)n1)C1CCN(Cc2nnc(C3CC3)o2)C1 (configuration not stated): 16.5%

Give the reported Percent Effect for this compound. CC(=O)N(Cc1noc(C2CC2)n1)C1CCN(Cc2ccncc2)C1 (configuration not stated)
10.8%

Give the reported Percent Effect for this compound. O=C1CC(c2ccncc2)C2(CCN(CCO)CC2)N1 (configuration not stated)
2.56%

Give the reported Percent Effect for this compound. COCCCN(C)Cc1nc2c(cnn2C)c(=O)[nH]1
25.9%

###

Organism: Homo sapiens
Assay: To identify inhibition of the IFN signalling (Jak-Stat) pathway via expression of an eGFP reporter gene under the control of an IFN-stimulated response element (ISRE) containing MxA promoter.
Format: functional
Parameters: scale not given: direction of the effect not stated beside the values
Conditions: 30 µM
Record YES whenever Percent Effect is at 20% or higher; record NO when lower.

O=C(c1ccc(C(F)(F)F)nc1)N1CCCC(n2cncn2)C1 (stereo unspecified): NO
O=C(CN1CCCCC1C1OCCO1)Nc1ccc(F)c(F)c1 (stereo unspecified): NO
CCCn1c(C)cc(C(=O)CN2C(=O)c3ccccc3CS2(=O)=O)c1C: YES
Cc1ccc(-n2nnc(C(=O)NS(C)(=O)=O)c2C2CC2)cc1: NO
COCC(C)N(C)C(=O)c1nc(S(C)(=O)=O)n2ccccc12 (stereo unspecified): YES

Turning to the following compound.
Does the compound CC(C)c1noc(CN(Cc2cccs2)C2CC2)n1 have recorded Percent Effect that is 20% or more?
NO
